I'd appreciate it if you could supply IC50 values for the items below.
# experimental system: Recombinant PRC2 (EZH2-Y641F) (Homo sapiens, UniProt Q15910, Y641F)
# Sequence (Q15910 whole entry Y641F): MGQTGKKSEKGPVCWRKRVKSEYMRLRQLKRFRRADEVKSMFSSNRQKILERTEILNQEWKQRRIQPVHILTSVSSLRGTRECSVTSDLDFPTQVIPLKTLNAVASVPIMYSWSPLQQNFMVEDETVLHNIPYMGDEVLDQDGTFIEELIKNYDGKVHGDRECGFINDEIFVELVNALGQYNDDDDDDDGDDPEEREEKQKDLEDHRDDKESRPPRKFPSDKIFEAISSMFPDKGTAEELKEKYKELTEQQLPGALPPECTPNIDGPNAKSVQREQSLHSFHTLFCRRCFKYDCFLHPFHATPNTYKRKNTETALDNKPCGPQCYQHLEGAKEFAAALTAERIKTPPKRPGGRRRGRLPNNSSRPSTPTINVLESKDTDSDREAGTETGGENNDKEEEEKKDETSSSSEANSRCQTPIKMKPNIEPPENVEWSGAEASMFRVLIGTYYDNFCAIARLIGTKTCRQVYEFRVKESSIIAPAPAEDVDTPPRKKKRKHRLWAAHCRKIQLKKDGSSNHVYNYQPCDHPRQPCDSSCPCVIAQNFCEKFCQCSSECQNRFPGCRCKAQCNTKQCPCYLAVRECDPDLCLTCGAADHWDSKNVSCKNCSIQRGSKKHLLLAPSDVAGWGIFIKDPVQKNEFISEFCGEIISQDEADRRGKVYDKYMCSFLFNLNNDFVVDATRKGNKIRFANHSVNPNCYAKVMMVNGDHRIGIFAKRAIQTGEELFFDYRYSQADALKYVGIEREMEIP
# Sequence (O75530 whole entry partner): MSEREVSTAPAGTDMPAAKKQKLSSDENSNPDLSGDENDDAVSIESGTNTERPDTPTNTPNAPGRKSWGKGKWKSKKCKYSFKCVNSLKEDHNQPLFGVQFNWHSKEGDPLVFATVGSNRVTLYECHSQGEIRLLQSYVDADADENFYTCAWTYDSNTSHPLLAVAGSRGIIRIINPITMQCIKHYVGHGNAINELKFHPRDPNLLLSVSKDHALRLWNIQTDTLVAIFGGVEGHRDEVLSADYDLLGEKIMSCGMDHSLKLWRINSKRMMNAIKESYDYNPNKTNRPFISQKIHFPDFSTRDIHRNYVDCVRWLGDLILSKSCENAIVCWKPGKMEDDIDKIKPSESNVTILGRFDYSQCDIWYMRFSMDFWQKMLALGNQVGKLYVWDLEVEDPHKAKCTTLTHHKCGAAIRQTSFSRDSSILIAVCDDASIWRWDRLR
# Sequence (Q15022 whole entry partner): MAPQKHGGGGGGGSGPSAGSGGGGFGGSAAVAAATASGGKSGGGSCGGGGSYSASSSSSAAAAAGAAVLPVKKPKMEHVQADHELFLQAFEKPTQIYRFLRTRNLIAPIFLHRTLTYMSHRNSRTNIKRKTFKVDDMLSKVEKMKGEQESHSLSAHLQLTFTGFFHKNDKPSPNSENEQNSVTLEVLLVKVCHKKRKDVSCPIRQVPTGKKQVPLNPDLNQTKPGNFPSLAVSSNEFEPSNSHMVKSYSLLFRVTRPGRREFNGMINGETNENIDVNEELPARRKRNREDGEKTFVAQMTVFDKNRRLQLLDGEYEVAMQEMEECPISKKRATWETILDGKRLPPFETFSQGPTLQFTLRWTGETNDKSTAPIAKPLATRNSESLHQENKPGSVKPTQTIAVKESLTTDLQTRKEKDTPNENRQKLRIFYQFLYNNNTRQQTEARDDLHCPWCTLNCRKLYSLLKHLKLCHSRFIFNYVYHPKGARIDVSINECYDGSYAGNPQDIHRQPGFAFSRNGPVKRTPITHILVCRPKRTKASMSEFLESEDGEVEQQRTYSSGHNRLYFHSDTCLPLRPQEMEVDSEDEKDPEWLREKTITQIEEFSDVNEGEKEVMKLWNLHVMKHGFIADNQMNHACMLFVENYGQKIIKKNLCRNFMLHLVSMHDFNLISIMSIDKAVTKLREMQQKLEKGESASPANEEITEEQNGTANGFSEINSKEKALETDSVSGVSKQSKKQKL
# Sequence (Q09028 whole entry partner): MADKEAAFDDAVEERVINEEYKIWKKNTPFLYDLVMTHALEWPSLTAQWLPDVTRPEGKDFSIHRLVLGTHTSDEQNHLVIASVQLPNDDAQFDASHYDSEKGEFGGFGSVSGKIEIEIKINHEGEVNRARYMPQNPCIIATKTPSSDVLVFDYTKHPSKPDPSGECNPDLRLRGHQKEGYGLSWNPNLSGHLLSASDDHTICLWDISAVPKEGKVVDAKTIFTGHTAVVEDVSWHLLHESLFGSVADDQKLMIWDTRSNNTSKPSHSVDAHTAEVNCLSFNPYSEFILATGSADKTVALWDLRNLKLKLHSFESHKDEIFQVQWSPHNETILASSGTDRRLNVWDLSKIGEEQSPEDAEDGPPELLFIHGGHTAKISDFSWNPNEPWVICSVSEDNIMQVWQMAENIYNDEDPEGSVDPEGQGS
# Sequence (Q6ZN18 whole entry partner): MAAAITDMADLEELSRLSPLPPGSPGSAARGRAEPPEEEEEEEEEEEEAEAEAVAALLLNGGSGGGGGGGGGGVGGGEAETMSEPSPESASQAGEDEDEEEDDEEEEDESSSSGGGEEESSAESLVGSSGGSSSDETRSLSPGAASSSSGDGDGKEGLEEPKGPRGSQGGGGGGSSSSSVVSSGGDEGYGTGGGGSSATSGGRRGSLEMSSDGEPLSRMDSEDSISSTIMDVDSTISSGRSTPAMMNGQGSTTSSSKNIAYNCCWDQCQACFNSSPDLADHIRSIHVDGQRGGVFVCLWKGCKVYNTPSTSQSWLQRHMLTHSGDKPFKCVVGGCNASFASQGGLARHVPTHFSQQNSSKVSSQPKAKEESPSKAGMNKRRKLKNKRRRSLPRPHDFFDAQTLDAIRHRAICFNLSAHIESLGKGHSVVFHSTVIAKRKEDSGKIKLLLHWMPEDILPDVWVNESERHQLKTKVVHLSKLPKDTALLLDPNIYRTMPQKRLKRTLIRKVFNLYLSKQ
# assay info: In vitro methyltransferase activity test (LANCE Ultra)
# run conditions: EZH2 Y641F IC50, Recombinant PRC2 (EZH2-Y641F), LANCE Ultra detection, 3 hours reaction
Value and unit, in that order.

IC50 in this record for `CCN(c1cc(N(C)c2cccnc2)cc2c(NCc3c(C)cc(C)[nH]c3=O)nccc12)[C@H]1CC[C@H](N(C)C)CC1` : 128 nM

Sure, the documented IC50 for `CCN(c1cc(C(=O)NC)cc2c(NCc3c(C)cc(C)[nH]c3=O)nccc12)[C@H]1CC[C@H](N(C)C)CC1` is 15 nM

The molecule listed as `CCN(c1cc(Cl)cc2c(NCc3c(C)cc(C)[nH]c3=O)nccc12)C1CCS(=O)(=O)CC1` has a reported IC50 of 418 nM

Please fill in: IC50 reported for `CCN(c1cc(-c2ccc(C(=O)N3CCN(C)CC3)nc2)cc2c(NCc3c(C)cc(C)[nH]c3=O)nccc12)C1CCN(C(C)C)CC1` = 51 nM

IC50 reading for `CCN(c1c(F)c(-c2ccc(N3CCN(C)CC3)nc2)cc2c(NCc3c(C)cc(C)nc3O)nccc12)[C@H]1CC[C@H](N(C)C)CC1` : 26 nM

IC50 reading for `CCN(c1cc(-c2ccc(CN3CCN(C)C(=O)C3)nc2)cc2c(NCc3c(C)cc(C)[nH]c3=O)nccc12)C1CCOCC1` : 84 nM

###

# experimental system: Recombinant PRC2 (EZH2-Y641F) (Homo sapiens, UniProt Q15910, Y641F)
# assay info: In vitro methyltransferase activity test (LANCE Ultra);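 note: compounds tested as an 8-point threefold dilution series, fluorescence read after 1 h detection step at room temperature, IC50 derived from a four-parameter curve fit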
# run conditions: EZH2 Y641F IC50, Recombinant PRC2 (EZH2-Y641F), LANCE Ultra detection, 3 hours reaction
measured parameter: pIC50
Would you please state pIC50, meaning minus log10 of the concentration in mol/L, as a bare number?

pIC50 measured on CCN(c1cc(C(=O)N(C)C2CCN(C)CC2)cc2c(NCc3c(C)cc(C)[nH]c3=O)nccc12)C1CCOCC1 [Compound Z-169] = 6.35

Just so you know, measured pIC50 for CCN(c1cc(-c2ccc(CN3CCOCC3)nc2)cc2c(NCc3c(C)cc(C)[nH]c3=O)nccc12)C1CCN(C(C)C)CC1 [Compound Z-69] came out at 7.00

Lab note: CCN(c1cc(-c2ccc(N3CCOCC3)nc2)cc2c(NCc3c(C)cc(C)[nH]c3=O)nccc12)C1CCC(NC(C)=O)CC1 (stereo not shown) [Compound Z-48] gave pIC50 of 6.52

Documented pIC50 of CCN(c1cc(C(C)C)cc2c(NCc3c(C)cc(C)[nH]c3=O)nccc12)[C@H]1CC[C@H](N(C)C)CC1 [Compound Z-214] : 6.43

Lab note: measured pIC50 of CCN(c1cc(-c2cncnc2)cc2c(NCc3c(C)cc(C)[nH]c3=O)nccc12)C1CCC(N(C)C)CC1 (stereo not shown) [Compound Z-65] was 7.28

Entry CCN(c1cc(-c2ccc(CN3CCOCC3)cc2)cc2c(NCc3c(C)cc(C)[nH]c3=O)nccc12)C1CCOCC1 [Compound Z-1] — recorded pIC50 = 6.37

In plain terms, CCN(c1cc(-c2cnc(N3CCNCC3)nc2)cc2c(NCc3c(C)cc(C)[nH]c3=O)nccc12)[C@H]1CC[C@H](N(C)C)CC1 [Compound Z-160] has a documented pIC50 of 8.22

Reference for the values: patent US20200262813A1
